molecular target: indoleamine 2,3-dioxygenase (IDO) (Homo sapiens, UniProt P14902); construct: host or cells: HeLa cells stimulated with IFNγ (25 ng/mL); assay: HeLa cell-based indoleamine 2,3-dioxygenase (IDO) assay (kynurenine production); details: HeLa cells, IFNγ 25 ng/mL, 48 hour incubation, absorbance at 480 nm
Sequence (P14902 whole entry): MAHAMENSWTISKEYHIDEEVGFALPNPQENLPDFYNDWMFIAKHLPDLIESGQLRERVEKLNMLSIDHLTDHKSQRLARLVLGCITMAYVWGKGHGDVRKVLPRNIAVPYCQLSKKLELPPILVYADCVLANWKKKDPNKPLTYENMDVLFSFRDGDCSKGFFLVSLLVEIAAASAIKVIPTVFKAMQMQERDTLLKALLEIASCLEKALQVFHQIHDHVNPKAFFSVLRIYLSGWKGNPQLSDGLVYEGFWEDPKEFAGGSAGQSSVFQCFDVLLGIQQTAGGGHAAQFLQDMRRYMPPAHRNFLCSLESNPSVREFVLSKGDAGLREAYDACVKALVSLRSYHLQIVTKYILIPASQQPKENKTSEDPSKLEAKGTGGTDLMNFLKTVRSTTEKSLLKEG
pIC50: −log10 of the molar value.
experimental-endpoint: pIC50

Worked cases, pIC50 given:
compound	target-desc	numeric-result
CCC(c1nc2ccc(Cl)cc2[nH]1)[C@H]1CC[C@H](Oc2ccnc3ccccc23)CC1 (single isomer, unassigned) [Example 13-2]	indoleamine 2,3-dioxygenase (IDO) (Homo sapiens, UniProt P14902)	8.05
C[C@@H](c1nc2ccc(Cl)cc2c(=O)[nH]1)[C@H]1CC[C@@H](c2ccnc3ccc(F)cc32)CC1	indoleamine 2,3-dioxygenase (IDO) (Homo sapiens, UniProt P14902)	6.85

[P] C[C@H](c1nc2ccc(Cl)cc2[nH]1)[C@H]1CC[C@@H](c2ccnc(C(F)(F)F)c2)CC1 (single isomer, unassigned) [Example 39-3]
[Q] C[C@@H](c1nc2c(F)c(F)ccc2[nH]1)[C@H]1CC[C@@H](c2ccnc3ccc(F)cc32)CC1
[R] CC[C@H](c1nc2ncc(Cl)cc2[nH]1)[C@H]1CC[C@@H](c2ccnc3ccc(F)cc32)CC1 (single isomer, unassigned) [Example 21-2]
Sort the 3 compounds by pIC50; largest first, smallest last. Would you mind listing the labels in the order asked for?
Q, P, R

[a] C[C@H](c1nc2ccc(Cl)cc2[nH]1)[C@H]1CC[C@@H](c2ccnc(C(F)(F)F)c2)CC1 (single isomer, unassigned) [Example 39-2]
[b] C[C@@H](c1nc2cc(Cl)c(F)cc2[nH]1)[C@H]1CC[C@@H](c2ccnc3ccc(F)cc32)CC1
[c] C[C@@H](c1nc2cc(C(F)(F)F)cc(Cl)c2[nH]1)[C@H]1CC[C@@H](c2ccnc3ccc(F)cc32)CC1
Would you mind ranking these compounds by ascending pIC50? Answer format: list of labels, ordered as asked.
a, c, b
(a: 7.12, c: 7.91, b: 8.43)

[a] C[C@@H](c1nc2cc(C(F)(F)F)cc(C(F)(F)F)c2[nH]1)[C@H]1CC[C@@H](c2ccnc3ccc(F)cc32)CC1
[b] C[C@H]([C@H]1CC[C@@H](c2ccnc3ccc(F)cc32)CC1)n1cnc2ccccc2c1=O
[c] C[C@@H](c1nc2c(F)c(F)c(F)c(F)c2[nH]1)[C@H]1CC[C@@H](c2ccnc3ccc(F)cc32)CC1
Order these by pIC50, descending, and give the full ranking. Answer format: the labels, ordered as requested.
c, a, b
(c: 8.46, a: 7.34, b: 6.08)

[a] C[C@@H](c1ncc2ccccn12)[C@H]1CC[C@@H](c2ccnc3ccc(F)cc32)CC1
[b] CC[C@H](c1nc2ccc(Cl)cc2[nH]1)[C@H]1CC[C@@H](c2ccnc3ccc(F)cc32)CC1 (single isomer, unassigned) [Example 15-4]
Hey, which is lower on measured pIC50, a or b ? Please respond with the label that marks your chosen entry.
a
(a: 6.08, b: 8.02)

Values compiled from patent US11337970B2.
